These measurements were taken from the supplement of paper PMC11780869.

- Tested on: Bacillus subtilis
- assay: cleaved RNA product abundance (RNA/gDNA barcode ratio) relative to median wild-type variant (ratio to wild type); higher = more accumulation of the downstream cleavage product
- study_conditions: experiment (reporter, strain, medium): exp 8a: truncated aprE reporter, strain BJT201 with 2% xylose (RNase J1 expressed); cleavage site: glnRA (positions -5 to +31 mutated)
Assignment: determine reported cleaved RNA product abundance for the given sequences.

Please review the entries below; each comes with its answer.
CGACATGTCCCGCTTCTTTCATTAAACCGTTAGCAACTGTTTTGATATATACATTTACCTTTTAAGAGGAGGAAT    0.428
CGACATGTCCCGCTTCTTTCATTATTCCGTTACCAAATGTTTTGCTATATACATTTACCTTTTAAGAGGAGGAAT    0.265
CGACATGTCCCGCTTCTTTCATTACTCCCCTAGCAACTGTTTGGCTATATATATTTACCTTTTAAGAGGAGGAAT    0.221
CGACATGTCCCGCTTCTTTCATTAATCCGTTATCAACTGTTATGCTATATACATTTACCTTTTAAGAGGAGGAAT    0.24
CGACATGTCCCGCTTCTTTCATTAATCCGTCAGCAACTGTTTTGCTATATATATTTACCTTTTAAGAGGAGGAAT    0.367
CGACATGTCCCGCTTCTTTCATTACTCCATTAGCAACTGTTTTGCTATATACATTTACCATTTAAGAGGAGGAAT    1.11

In the following, a different sequence is considered.
Find the recorded cleaved RNA product abundance belonging to CGACATGTCCCGCTTCTTTCATTAATTCGTTAGCAACTGTTTTGCTATATACATTTACCCTTTAAGAGGAGGAAT and report it.
0.564

###

Assignment: determine reported cleaved RNA product abundance for the given sequences.
- Tested on: Bacillus subtilis
- assay: cleaved RNA product abundance (RNA/gDNA barcode ratio) relative to median wild-type variant (ratio to wild type); higher = more accumulation of the downstream cleavage product
- study_conditions: experiment (reporter, strain, medium): exp 2b: truncated aprE reporter, strain BJT200; cleavage site: cggR-gapA (positions -7 to +36 mutated)
Numbers only.

Please review the entries below; each comes with its answer.
ACAGACGAAGGAGCCGCTAAGAAGTTATTAAGAGATGAATAATCCCTCAATATAAATATCTCTCACTTATTTAAA    0.126
ACAGACGAAGGAGCCGCAAAGAACTTATTAAGGCATGAATAATCCCTCAATATAAATATCTCTCACTTATTTAAA    0.114
ACAGACGAAGGAGCCGCAAAGAAGTTATTAAGGGAAGAATAACCCCTCAATATAAATATCTCTCACTTATTTAAA    0.283
ACAGACGAAGGAGCCGCAAAGAAGTTATTAAGGAATGAATAATCCCTTAATATAAATATCTCTCACTTATTTAAA    0.68
ACAGACGAAGGAGCCGCAAAGAAGTCATTAATGGATGAATAATCCCTCAATATAAATATCTCTCACTTATTTAAA    0.0927

I'm hoping you can list cleaved RNA product abundance for every sequence here, please.
1. ACAGACGAAGGAGCCGCAAAGAAGTTATTAAGGGATGAATAATCCCTCAATATAAATATCTCTACTTATTTAAAG
2. ACAGACGAAGGAGCCGCAAAGAAGTTATTAAGGGTTGATTAATCCCTCAATATAAATATCTCTCACTTATTTAAA

[1.09, 0.287]
